# Test system: U251 CNS
Write down one outcome, taken from active, inactive

See these solved cases before continuing.
COMPOUND | TARGET | CLASS
CC(C)=CC1=C2C3=C(C(=O)C4(O)Oc5c(C)c6c7c(c5OC24C)[C@@H](C)CC[C@@H]7[C@@H](C)C[C@H]6C=C(C)C)C(C)CCC3C(C)C1 (stereo partly drawn) | U251 CNS | inactive
O=C1CCc2c(sc3[nH]c(=S)n(Cc4ccc(Cl)cc4)c(=O)c23)C1 | U251 CNS | active
CN(C)CCCNC(=O)c1cc(NC(=O)c2cc(NC(=O)CCNS(=O)(=O)c3ccc4c(c3)C(=O)c3ccccc3C4=O)cn2C)cn1C | U251 CNS | inactive
Cc1cnc(C(=O)NNc2nc3sc4c(c3c(=O)n2C)C(C)CCC4)cn1 (stereo not drawn) | U251 CNS | active

Consider the additional compound presented here.
Exercise: Status in this test for NCCCNCCCCNC(=O)C(O)NC(=O)CCCCCCN=C(N)N (stereo not drawn) ?
Key: inactive
